# pIC50 against Adenosylhomocysteinase (Homo sapiens, UniProt P23526), merged from multiple literature sources
# Sequence (P23526 whole entry): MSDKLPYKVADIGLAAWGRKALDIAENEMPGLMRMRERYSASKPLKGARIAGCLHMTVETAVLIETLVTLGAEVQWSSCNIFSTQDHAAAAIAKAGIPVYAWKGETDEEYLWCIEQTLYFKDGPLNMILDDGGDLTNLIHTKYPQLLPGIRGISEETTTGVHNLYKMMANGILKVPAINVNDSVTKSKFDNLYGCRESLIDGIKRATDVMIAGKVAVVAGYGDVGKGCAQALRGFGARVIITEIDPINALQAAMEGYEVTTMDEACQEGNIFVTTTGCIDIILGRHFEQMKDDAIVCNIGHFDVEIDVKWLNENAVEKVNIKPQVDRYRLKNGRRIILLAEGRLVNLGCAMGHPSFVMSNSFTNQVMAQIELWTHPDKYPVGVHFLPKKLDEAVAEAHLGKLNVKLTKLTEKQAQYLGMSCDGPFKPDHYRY
The scale used: pIC50 is minus the common logarithm of the concentration in molar units.

Nc1ncnc2c1ncn2[C@@H]1C(F)=C(CS)[C@@H](O)[C@H]1O | 4.01
C=C1CCC[C@H]2[C@](C)(CC3=C(O)C(=O)C=C(OC)C3=O)[C@@H](C)CC[C@]12C | 4.40
Nc1ncnc2c1ncn2Cc1cc(OCC2CCCCC2)cc(O)c1O | 6.40
Nc1nc(F)nc2c1ncn2[C@@H]1C[C@H](CO)[C@@H](O)[C@H]1O | 4.33

Could you now consider this next molecule?
Kindly state the measured pIC50 obtained for Nc1ncnc2c1ncn2[C@@H]1C(F)=C(CO)[C@@H](O)[C@H]1O with Adenosylhomocysteinase (Homo sapiens, UniProt P23526).
6.32

----------
# pIC50 against Adenosylhomocysteinase (Homo sapiens, UniProt P23526), merged from multiple literature sources
pIC50: −log10 of the molar value.

Would you please look over these solved cases?
NC(=O)c1cccc(C#CCN(CC[C@H](N)C(=O)O)C[C@H]2O[C@@H](n3cnc4c(N)ncnc43)[C@H](O)[C@@H]2O)c1 | < 5.43
Nc1ncnc2c1ncn2[C@@H]1C(Br)=C[C@@H](O)[C@H]1O | < 3.00

Could you now consider this next compound?
Kindly state the measured pIC50 obtained for COC1=CC(=O)C(O)=C(C[C@@]2(C)[C@@H]3CCC[C@H](COC(=O)CCCCCNC(=O)OC(C)(C)C)[C@@]3(C)CC[C@@H]2C)C1=O with Adenosylhomocysteinase (Homo sapiens, UniProt P23526).
> 4.70
